experimentalDetails: Stability in cryopreserved hepatocytes, human
measure: Trep Concentration (μM) 60 min
State the value with its unit after it.

// below: answered compounds
compound: CCCCCC(CCC1C(O)CC2Cc3c(cccc3OCC(=O)O)CC21)OC(=O)c1ccccc1O (stereo not shown)
Trep Concentration (μM) 60 min: 0.0556 µM
//
compound: CCCCCC(CCC1C(O)CC2Cc3c(cccc3OCC(=O)O)CC21)OC(=O)CCC(=O)O (stereo not shown)
Trep Concentration (μM) 60 min: 0.246 µM
//
compound: CCCCCC(CCC1C(O)CC2Cc3c(cccc3OCC(=O)O)CC21)OC(=O)C(N)CCCCN (stereo not shown)
Trep Concentration (μM) 60 min: 0.123 µM
//
compound: CCCCCC(CCC1C(O)CC2Cc3c(cccc3OCC(=O)O)CC21)OC(=O)c1ccc(O)c(O)c1 (stereo not shown)
Trep Concentration (μM) 60 min: 0.0184 µM
//
compound: CCCCCC(CCC1C(O)CC2Cc3c(cccc3OCC(=O)O)CC21)OC(=O)NC (stereo not shown)
Trep Concentration (μM) 60 min: 0.00464 µM

Requested field: Trep Concentration (μM) 60 min. Item: CCCCCC(CCC1C(O)CC2Cc3c(cccc3OCC(=O)O)CC21)OC(=O)CCN (stereo not shown) 0.0715 µM

Moving on to CCCCCC(CCC1C(O)CC2Cc3c(cccc3OCC(=O)O)CC21)OC(C)=O (stereo not shown) 0.54 µM
